Target: T1, recombinant human CTLA4-his protein (Acro biosystems, Cat#CT4-H5229) (human, UniProt P16410 37-162)
T1 construct: bought recombinant protein; not shown: his tag
T1 sequence (looked up): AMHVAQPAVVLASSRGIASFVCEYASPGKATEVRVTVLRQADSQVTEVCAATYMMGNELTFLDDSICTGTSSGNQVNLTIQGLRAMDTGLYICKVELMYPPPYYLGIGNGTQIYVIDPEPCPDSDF
Experiment: BLI, Octet; antibody from cell supernatant on AHC sensor, CTLA4-his as analyte
Readout kind: koff (s⁻¹)
Express the result in s⁻¹ but write the number alone.

binder huC1D1-V7 (antibody, human IgG4 S228P, kappa, V domains shown, humanized IgG4/kappa; tested as 293F cell supernatant on Octet; also called hu CTLA4 C1D1-V7) VH: EVQLVESGGGLVQPGRSLRLSCTASGFTFSDNWMNWVRQAPGKGLEWVGQIRNKPYNYETYYSDSVKGRFTISRDDSKSIVYLQMNSLKTEDTAVYYCTGGMDYWGQGTTVTVSS VL: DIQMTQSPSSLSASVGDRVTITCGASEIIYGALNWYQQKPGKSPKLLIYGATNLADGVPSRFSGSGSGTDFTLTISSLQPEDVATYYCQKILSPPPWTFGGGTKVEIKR , koff observed: 0.000169

binder huD1D5-V12 (antibody, human IgG4 S228P, kappa, V domains shown, humanized IgG4/kappa; tested as 293F cell supernatant on Octet; also called hu CTLA4 D1D5-V12) VH: EVQLVESGGGLVKPGGSLRLSCAASGFTFSDYGMAWVRQAPGKGLEWVSFISNLAYSVYYADTETGRFTISRDNAKNSLYLQMNSLRAEDTAVYYCARSGLPYAMDYWGQGTTVTVSS VL: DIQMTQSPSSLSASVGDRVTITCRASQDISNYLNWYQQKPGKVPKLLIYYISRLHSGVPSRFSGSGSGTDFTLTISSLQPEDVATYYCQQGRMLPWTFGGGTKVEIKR , koff observed: 0.00133

binder huD1D5-V6 (antibody, human IgG4 S228P, kappa, V domains shown, humanized IgG4/kappa; tested as 293F cell supernatant on Octet; also called hu CTLA4 D1D5-V6) VH: EVQLVESGGGLVKPGGSLRLSCAASGFTFSDYGMAWVRQAPGKGLEWVAFISNLAYSVYYADTETGRFTISRDNAKNSLYLQMNSLRAEDTAVYYCARSGLPYAMDYWGQGTTVTVSS VL: DIQMTQSPSSLSASVGDRVTITCRASQDISNYLNWYQQKPGKVPKLLIYYISRLHSGVPSRFSGSGSGTDFTLTISSLQPEDVATYFCQQGRMLPWTFGGGTKVEIKR , koff observed: 0.00157

binder huD1D5-V8 (antibody, human IgG4 S228P, kappa, V domains shown, humanized IgG4/kappa; tested as 293F cell supernatant on Octet; also called hu CTLA4 D1D5-V8) VH: EVQLVESGGGLVKPGGSLRLSCAASGFTFSDYGMAWVRQAPGKGLEWVSFISNLAYSVYYADTETGRFTISRDNAKNSLYLQMNSLRAEDTAVYYCARSGLPYAMDYWGQGTTVTVSS VL: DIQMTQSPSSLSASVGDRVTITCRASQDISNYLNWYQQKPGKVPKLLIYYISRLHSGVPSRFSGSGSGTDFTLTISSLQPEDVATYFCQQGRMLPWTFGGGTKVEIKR , koff observed: 0.00196
